Tested on: IGROV1 ovarian
measurement-protocol: NCI tumour cell line growth inhibition, 48 h

compound | test-system | measurement-qualifier | TGI (µM)
O=C1CN(c2ccccc2)C(=O)CN1NCNN1CC(=O)N(c2ccccc2)CC1=O | IGROV1 ovarian | > | 100
Nc1ncnc2c1ccn2-c1cccc(NC(=O)c2ccc(N3CCOCC3)c(C(F)(F)F)c2)c1 | IGROV1 ovarian | = | 33.2
CN(C)CCCCNc1ccc(NCCCCN(C)C)c2c1C(=O)c1c(O)ccc(O)c1C2=O | IGROV1 ovarian | = | 3.03
CC(=O)O[C@@H]1CC[C@@]2(C)C(=O)C34C[C@@]5(C)C([C@@H](C)CCCC(C)C)CCC5(C)[C@](O)(O3)C(=O)[C@H]4C2C1(C)C (some centres undefined) | IGROV1 ovarian | = | 31.6

###

Test system: CCRF-CEM leukemia
measurement-protocol: NCI tumour cell line growth inhibition, 48 h
Each record here notes measured TGI.
property-measured: TGI

molecule | test-system | property-measured | reported-measurement
c1cc(CSc2ncnc3nc[nH]c23)ccn1 | CCRF-CEM leukemia | TGI | > 100 µM
O=C(Nc1ccc(Cl)cc1)c1cc(S(=O)(=O)N2CCNNC2=O)c(S)cc1Cl | CCRF-CEM leukemia | TGI | > 100 µM
COC(=O)C1Cc2cc3c(cc2C1)CCC3 | CCRF-CEM leukemia | TGI | > 100 µM
COC(=O)Cc1c(C2C(CC(=O)OC)c3ccccc3N2C2OC(CO)C(O)C(O)C2O)[nH]c2ccccc12 (configuration not stated) | CCRF-CEM leukemia | TGI | > 100 µM
COc1cc(N2CCC(N)CC2)ccc1Nc1ncc(Cl)c(-c2c[nH]c3ccccc23)n1 | CCRF-CEM leukemia | TGI | 7.15 µM
COc1cc(N(CCCl)CCCl)ccc1/C=N\NC(=O)c1cccnc1 | CCRF-CEM leukemia | TGI | > 100 µM
CCCCOC(=O)c1c(C)[nH]c(/C=C2\N=C(c3ccc[nH]3)C=C2OC)c1C | CCRF-CEM leukemia | TGI | > 20.4 µM
Cc1cc(=O)oc2c(C)c3oc(CBr)cc3cc12 | CCRF-CEM leukemia | TGI | 54.2 µM
CN1CCc2c(sc3ncn(Nc4ccc(F)cc4)c(=N)c23)C1 | CCRF-CEM leukemia | TGI | > 100 µM
CC(=O)Nc1cc2c3c(cccc3c1)-c1ccccc1-2 | CCRF-CEM leukemia | TGI | > 100 µM
CCCCCCCCCC[C@H](O)[C@H]1CC[C@@H]([C@@H](O)CC[C@H](O)[C@@H]2CCC(CCCCCCC[C@@H](O)CC3=C[C@H](C)OC3=O)O2)O1 (some centres not stated) | CCRF-CEM leukemia | TGI | 12.3 µM
C=C1CC[C@@H]2[C@](C)(COC(=O)CCC(=O)O)CCC[C@@]2(C)[C@@H]1CCC1=CC(=O)OC1 | CCRF-CEM leukemia | TGI | > 100 µM
O=c1/c(=C\c2ccc(Br)cc2)sc2n1C(c1ccc(Br)cc1)C1=C(N=2)c2ccc3ccccc3c2OCC1 (configuration not stated) | CCRF-CEM leukemia | TGI | > 100 µM
CSC1=Nc2ccccc2N=C(c2ccccc2)C1 | CCRF-CEM leukemia | TGI | 58.9 µM
NC1(C(=O)N[C@@H](CCO)c2ccc(Cl)cc2)CCN(c2ncnc3[nH]ccc23)CC1 | CCRF-CEM leukemia | TGI | > 58.4 µM
O=C1OCC2=C1C(c1cccc(Cl)c1)c1cc3c(cc1N2CCO)CCC3 (configuration not stated) | CCRF-CEM leukemia | TGI | 14.1 µM
CC(C)C1=CC2=C(C(=O)C1=O)C13CCCC(C)(C)C1CC2OC3=O (configuration not stated) | CCRF-CEM leukemia | TGI | 33.1 µM
CCOC(=O)c1cc([N+](=O)[O-])c(Sc2ncnc3nc[nH]c23)c([N+](=O)[O-])c1 | CCRF-CEM leukemia | TGI | 4.39 µM
CN1CCN(c2n[nH]c(=O)c3c2nnn3C2CCCCC2)CC1 | CCRF-CEM leukemia | TGI | > 100 µM
COc1cccc(/C=N/[N-]C(N)=O)c1[O-].[Co+2].[OH3+].c1ccncc1 | CCRF-CEM leukemia | TGI | > 100 µM
COc1cc(CC(=O)O)c([N+](=O)[O-])cc1OC | CCRF-CEM leukemia | TGI | > 100 µM
COc1cc(C(=O)NN=C2c3ccccc3-c3ccccc32)cc(OC)c1OC | CCRF-CEM leukemia | TGI | > 100 µM
CC(C)CC1N=C(OCc2ccccc2)OC1=O (configuration not stated) | CCRF-CEM leukemia | TGI | > 100 µM
O=C1c2ccccc2C(=O)N1NC1=NCCN1 | CCRF-CEM leukemia | TGI | > 100 µM
COC(=O)C(C(=O)C(=O)Nc1ccccc1C)c1nc2ccc([N+](=O)[O-])cc2[nH]c1=O (configuration not stated) | CCRF-CEM leukemia | TGI | > 100 µM
CC(C)C(CCOS(=O)(=O)O)CCC(C)[C@H]1[C@@H](O)C(O)C2[C@]3(O)C[C@@H](O)C4(O)C[C@@H](O)CC[C@]4(C)C3CC[C@@]21C (some centres not stated) | CCRF-CEM leukemia | TGI | > 100 µM
CC(C)(C)CI | CCRF-CEM leukemia | TGI | 50.8 µM
CC[C@@]1(O)C(=O)OCc2c1cc1n(c2=O)Cc2c-1nc1cc(F)c(C)c3c1c2[C@@H](NC(=O)CO)CC3 | CCRF-CEM leukemia | TGI | > 100 µM
Cc1cc(C)c2c(c1)N(C)c1ncnc(-n3cnc4cc(C)ccc43)c1CC2C (configuration not stated) | CCRF-CEM leukemia | TGI | 11.4 µM
COCCCNc1c2ccccc2nc2ccccc12 | CCRF-CEM leukemia | TGI | 60.6 µM
COCCCC(NC(=O)C(CC(C)C)NC(=O)OCc1ccc(OC)cc1)C(=O)OC (configuration not stated) | CCRF-CEM leukemia | TGI | 87.1 µg/mL
CC(=O)ON=C1C=CC(=C(C#N)c2ccccc2)C=C1 | CCRF-CEM leukemia | TGI | > 100 µM
CN(Cc1cnc2nc(N)nc(N)c2n1)c1ccc(C(=O)NCCCC(=O)O)cc1 | CCRF-CEM leukemia | TGI | > 100 µM
CCN(CC)C(=O)CC12CCCCC1=Nc1ccccc12 (configuration not stated) | CCRF-CEM leukemia | TGI | > 100 µM
CON[N+]([O-])=NC(C)C | CCRF-CEM leukemia | TGI | > 100 µM
O=C(Nc1cccc(-n2cc(-c3ccncc3)c(-c3ccc(Cl)c(O)c3)n2)c1)Nc1ccc(Cl)c(Cl)c1 | CCRF-CEM leukemia | TGI | > 32.5 µM
CCCCCCCCCCCCCCCCCCOc1ccccc1COP(=O)(O)OOCC[N+](C)(C)C | CCRF-CEM leukemia | TGI | 2.02 µM
Nc1c(C(=O)Nc2cccc(C(F)(F)F)c2)sc2nc3c(cc12)CCCCCC3 | CCRF-CEM leukemia | TGI | > 100 µM
CCN(CC)CCSc1c(C(C)=O)c(=O)n(-c2ccccc2)c(=S)n1-c1ccccc1 | CCRF-CEM leukemia | TGI | > 100 µM
COc1nc(NC2OC(CO)C(O)C(O)C2O)c(N)c(=O)[nH]1 (configuration not stated) | CCRF-CEM leukemia | TGI | > 100 µM
COC(=O)C1=CCC2c3[nH]c4ccccc4c3CCN2C1 (configuration not stated) | CCRF-CEM leukemia | TGI | > 354 µM
O=C(O)CCC1c2[nH]c3ccccc3c2CCN1Cc1ccccc1 (configuration not stated) | CCRF-CEM leukemia | TGI | > 100 µM
